- Tested on: C. auris 8971
- experimental_details: Candida panel MIC, serial dilution in 96-well plates
- Assay type: cell-based, Candida auris
- particulars: Candidozyma auris, 8971; Table 4, extended panel; 24 hours, ≥50% inhibition; read-out: MIC C. auris 8971
Note to self: MIC under 0.2 µg/mL means met, ties and anything higher get not met.

Completed entries (count: 5):
| compound | tested_target | label_class |
| --- | --- | --- |
| OC(CN1CCC2(CCC(Nc3ccc(OCCN4CCOCC4)cc3)CC2)C1)(Cn1cncn1)c1ccc(F)cc1F (stereo not shown) | C. auris 8971 | not met |
| OC(CN1CCC(Nc2ccc(Cc3ccc(F)cc3)cc2)CC1)(Cn1cncn1)c1ccc(F)cc1F (stereo not shown) | C. auris 8971 | met |
| OC(CN1CCC(N2CCC(Nc3ccc(OCCN4CCOCC4)cc3)CC2)CC1)(Cn1cncn1)c1ccc(F)cc1F (stereo not shown) | C. auris 8971 | not met |
| CC1CCN(COc2ccc(NC3CCN(CC(O)(Cn4cncn4)c4ccc(F)cc4F)CC3)cc2)CC1 (stereo not shown) | C. auris 8971 | not met |
| OC(CN1CCC2(CCN(c3ccc(OCCN4CCOCC4)cc3)CC2)C1)(Cn1cncn1)c1ccc(F)cc1F (stereo not shown) | C. auris 8971 | not met |

Req: Confirm or reject: MIC of CN1CCC(Oc2ccc(NC3CCN(CC(O)(Cn4cncn4)c4ccc(F)cc4F)CC3)cc2)CC1 (stereo not shown) lies strictly below 0.2 µg/mL
Resp: not met

Req: Hello, I'm reviewing records and need to know if MIC of OC(CN1CCC(Nc2ccc(OCCN3CCOCC3)cc2)CC1)(Cn1cncn1)c1ccc(F)cc1F (stereo not shown) is below 0.2 µg/mL. Could you check?
Resp: met

---

MIC by entry:
- System: Candida auris TDG2512
- experimental_details: Candida panel MIC, serial dilution in 96-well plates
- Format: cell-based
- particulars: Candidozyma auris, TDG2512; Table 4, extended panel; 24 hours, ≥50% inhibition; read-out: MIC Candida auris TDG2512

| molecule | observed_value |
| --- | --- |
| C[C@@H](c1ncncc1F)[C@](O)(Cn1cncn1)c1ccc(F)cc1F [Voriconazole, voriconazole, reference compound] | > 128 µg/mL |
| OC(CN1CCC(Nc2ccc(Cc3ccc(F)cc3)cc2)CC1)(Cn1cncn1)c1ccc(F)cc1F (stereo not shown) [Example 30] | ≤ 0.125 µg/mL |
| OC(CN1CCC2(CCC(Nc3ccc(Cc4ccccc4)cc3)CC2)C1)(Cn1cncn1)c1ccc(F)cc1F (stereo not shown) [Example 13] | ≤ 0.125 µg/mL |

Req: Find the recorded MIC belonging to Cc1ccc(-c2ccc(NC3CCN(CC(O)(Cn4cncn4)c4ccc(F)cc4F)CC3)cc2)cc1 (stereo not shown) [Example 3] and report it.
Resp: ≤ 0.003 µg/mL

---

Entries annotated with measured MIC
- System: C. krusei NCPF3876
- experimental_details: microbe, parasite or virus in culture
- Type: cell-based, Candida krusei
- particulars: Pichia kudriavzevii, NCPF3876; Table 4, common panel; 24 hours, ≥50% inhibition; read-out: MIC C. krusei NCPF3876
- Method: The minimum inhibitory concentration of test compounds were determined in a panel of Candida species (see Table 4 below), using the a serial dilution method in 96-well plates using the following protocol. Starter cultures of fungal strains to be tested were grown in 3 mL of RPMI 2% glucose media incubated at 37° C. with shaking at 200 rpm overnight. […] A plate reader was used to measure growth in each well at OD530 nm and the MIC was determined for each test compound. […]

Examples with their reported MIC follow.
| compound | observed_value |
| --- | --- |
| OC(CN1CCC(Nc2ccc(Cc3ccccc3)cc2)CC1)(Cn1cncn1)c1ccc(F)cc1F (stereo not shown) | ≤ 0.125 µg/mL |
| Cc1ccc(Oc2ccc(NC3CCN(CC(O)(Cn4cncn4)c4ccc(F)cc4F)CC3)cc2)cc1 (stereo not shown) | 0.0156 to 0.25 µg/mL |
| N#Cc1ccc(-c2ccc(NC3CCN(CC(O)(Cn4cncn4)c4ccc(F)cc4F)CC3)cc2)cc1 (stereo not shown) | 0.003 to 0.125 µg/mL |
| COc1ccc(-c2ccc(NC3CCN(CC(O)(Cn4cncn4)c4ccc(F)cc4F)CC3)cc2)cc1 (stereo not shown) | 0.004 to 0.125 µg/mL |
| COc1ccc(Oc2ccc(NC3CCN(CC(O)(Cn4cncn4)c4ccc(F)cc4F)CC3)cc2)cc1 (stereo not shown) | 0.015 to 0.125 µg/mL |

Req: Write down the reported MIC of OC(Cn1cncn1)(Cn1cncn1)c1ccc(F)cc1F [Fluconazole, fluconazole, reference compound] , test system: C. krusei NCPF3876.
Resp: 0.5 to 8 µg/mL

Req: Please tell me: MIC of OC(CN1CCC2(CCC(Nc3ccc(Cc4ccccc4)cc3)CC2)C1)(Cn1cncn1)c1ccc(F)cc1F (stereo not shown) , system C. krusei NCPF3876?
Resp: ≤ 0.125 µg/mL

Req: # returns recorded MIC (system: C. krusei NCPF3876) for Cc1ccc(-c2ccc(NC3CCN(CC(O)(Cn4cncn4)c4ccc(F)cc4F)CC3)cc2)cc1 (stereo not shown)
Resp: 0.004 to 0.016 µg/mL

Req: Form: Entry = OC(CN1CCC2(CCN(Cc3ccccc3)CC2)CC1)(Cn1cncn1)c1ccc(F)cc1F (stereo not shown) | System = C. krusei NCPF3876 | MIC = ____
Resp: 1 to 2 µg/mL

Req: Lookup: MIC / C. krusei NCPF3876 / OC(CN1CCC(N2CCC(Nc3ccc(Cc4ccccc4)cc3)CC2)CC1)(Cn1cncn1)c1ccc(F)cc1F (stereo not shown)
Resp: ≤ 0.125 µg/mL
